Listing of entries alongside the reported CC50.
Tested on: CCRF-CEM
Method description: Concentration required to reduce the viability of uninfected cells (CEM-CL13) by 50% on day 7.
Format: functional
Condition parameters: Homo sapiens, 168 h, read-out: CD50 (the source's name)

Provide the documented CC50 with CCRF-CEM as the system for Cc1cn([C@H]2C[C@H](N=[N+]=[N-])[C@@H](CO)O2)c(=O)[nH]c1=O
26 µM

Provide the documented CC50 with CCRF-CEM as the system for CCCCCCCCCCCCCCCCOP(=O)(OC[C@H]1OC(O)[C@H](O)[C@@H](O)[C@@H]1O)OC[C@H]1OC(n2cc(C)c(=O)[nH]c2=O)C[C@@H]1N=[N+]=[N-] (some centres undefined)
11 µM

Provide the documented CC50 with CCRF-CEM as the system for Cc1cn([C@H]2C[C@H](N=[N+]=[N-])[C@@H](COP(=O)(O)OC[C@H]3OC(O)[C@@H](O)[C@@H](O)[C@@H]3O)O2)c(=O)[nH]c1=O (some centres undefined)
27 µM

Provide the documented CC50 with CCRF-CEM as the system for Cc1cn([C@H]2C[C@H](N=[N+]=[N-])[C@@H](COP(=O)(O)OCCO[C@H]3O[C@H](CO)[C@@H](O)[C@H](O)[C@@H]3O)O2)c(=O)[nH]c1=O
25 µM

---

Listing of entries alongside the reported Activity (c.p.m. 50ul-1).
Target of assay: Human immunodeficiency virus type 1 reverse transcriptase (Human immunodeficiency virus 1)
Method description: Compound ability to inhibit the production of HIV reverse transcriptase (RT) in culture supernatant of monocytic U937 on at 14 days at a concentration 5 uM
Type: functional
# print the numeric value only

Cc1cn([C@H]2C[C@H](N=[N+]=[N-])[C@@H](COP(=O)(O)OC[C@H]3OC(O)[C@@H](O)[C@@H](O)[C@@H]3O)O2)c(=O)[nH]c1=O (some centres undefined)	24000
Cc1cn([C@H]2C[C@H](N=[N+]=[N-])[C@@H](CO)O2)c(=O)[nH]c1=O [ZIDOVUDINE]	33000
Cc1cn([C@H]2C[C@H](N=[N+]=[N-])[C@@H](COP(=O)(O)OCCO[C@H]3O[C@H](CO)[C@@H](O)[C@H](O)[C@@H]3O)O2)c(=O)[nH]c1=O	23000

Kindly consider the entry below.
Fill blank: measured Activity (c.p.m. 50ul-1) of the molecule Cc1cn([C@H]2C[C@H](N=[N+]=[N-])[C@@H](COP(=O)(O)OC[C@H]3OC(O)[C@H](O)[C@@H](O)[C@@H]3O)O2)c(=O)[nH]c1=O (some centres undefined) is ____.
31400

---

Target of assay: Human immunodeficiency virus type 1 reverse transcriptase (Human immunodeficiency virus 1)
Method description: Compounds were evaluated for anti-RT activity at 9 days of culture
Type: functional
Listing of entries alongside the reported Activity (c.p.m. 50ul-1).
# print the numeric value only

Cc1cn([C@H]2C[C@H](N=[N+]=[N-])[C@@H](COP(=O)(O)OC[C@H]3OC(O)[C@H](O)[C@@H](O)[C@@H]3O)O2)c(=O)[nH]c1=O (some centres not stated)	28000
Cc1cn([C@H]2C[C@H](N=[N+]=[N-])[C@@H](COP(=O)(O)OC[C@H]3OC(O)[C@@H](O)[C@@H](O)[C@@H]3O)O2)c(=O)[nH]c1=O (some centres not stated)	34000
Cc1cn([C@H]2C[C@H](N=[N+]=[N-])[C@@H](COP(=O)(O)OCCO[C@H]3O[C@H](CO)[C@@H](O)[C@H](O)[C@@H]3O)O2)c(=O)[nH]c1=O	39000
Cc1cn([C@H]2C[C@H](N=[N+]=[N-])[C@@H](CO)O2)c(=O)[nH]c1=O	7500
CCCCCCCCCCCCCCCCOP(=O)(OC[C@H]1OC(O)[C@H](O)[C@@H](O)[C@@H]1O)OC[C@H]1OC(n2cc(C)c(=O)[nH]c2=O)C[C@@H]1N=[N+]=[N-] (some centres not stated)	13000
CCCCCCCCCCCCCCCCOP(=O)(OC[C@H]1OC(O)[C@@H](O)[C@@H](O)[C@@H]1O)OC[C@H]1OC(n2cc(C)c(=O)[nH]c2=O)C[C@@H]1N=[N+]=[N-] (some centres not stated)	10000

Kindly consider the entry below.
Fill blank: measured Activity (c.p.m. 50ul-1) of the compound CCCCCCCCCCCCCCCCOP(=O)(OCCO[C@H]1O[C@H](CO)[C@@H](O)[C@H](O)[C@@H]1O)OCC1OC(n2cc(C)c(=O)[nH]c2=O)CC1N=[N+]=[N-] (some centres not stated) is ____.
44000
